Biological target: T1, 表达于CHOK1细胞表面的人TIGIT (CHOK1/人TIGIT细胞, 吉满生物 GM-C01116) (human, UniProt Q495A1 22-244)
T1 construct: whole, on cells; Purchased cell line; also called CHOK1/hTIGIT
T1 sequence (looked up): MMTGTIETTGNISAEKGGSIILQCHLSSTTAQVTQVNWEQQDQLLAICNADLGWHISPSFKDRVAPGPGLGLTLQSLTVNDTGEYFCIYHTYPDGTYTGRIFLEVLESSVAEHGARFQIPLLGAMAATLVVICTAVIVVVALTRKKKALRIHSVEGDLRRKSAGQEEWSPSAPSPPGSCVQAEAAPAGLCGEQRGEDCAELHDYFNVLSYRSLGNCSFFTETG
Assay: flow cytometry on CHOK1/hTIGIT cells
The following binders are shown together with reported 最大MFI values.
recorded metric: 最大MFI (MFI)

# binder, recorded metric, numeric value
records = [
    ("人源化抗TIGIT抗体A3 (antibody, human IgG1, kappa, V domains shown, Humanized) VH: QLQLVQSGAEVKKPGASVKVSCKASGYSFTDYNMNWVRQAPGQSLEWIGVINPNHGTISYNQKFKGRVTMTRDQSTSTAYMELNSLRSEDTAVYYCANNWDVWYFDVWGQGTLVTVSS VL: DIQMTQSPSSLSASVGDRVTITCRPSENIYSYLAWYQQKPGNAPKLLVYNAKALAEGVPSRFSGSGSGTQFTLTISSLQPEDFATYYCQHHFGAPWTFGQGTKVEIKR", "最大MFI", 10200),
    ("人源化抗TIGIT抗体A1 (antibody, human IgG1, kappa, V domains shown, Humanized) VH: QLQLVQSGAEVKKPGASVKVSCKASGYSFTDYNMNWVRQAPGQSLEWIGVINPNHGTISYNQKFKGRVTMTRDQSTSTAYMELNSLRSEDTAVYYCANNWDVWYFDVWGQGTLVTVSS VL: DIQMTQSPSSLSASVGDRVTITCRPSENIYSYLAWYQQKPGKAPKLLIYNAKALAEGVPSRFSGSGSGTDFTLTISSLQPEDFATYYCQHHFGAPWTFGQGTKVEIKR", "最大MFI", 10800),
    ("人源化抗TIGIT抗体A4 (antibody, human IgG1, kappa, V domains shown, Humanized) VH: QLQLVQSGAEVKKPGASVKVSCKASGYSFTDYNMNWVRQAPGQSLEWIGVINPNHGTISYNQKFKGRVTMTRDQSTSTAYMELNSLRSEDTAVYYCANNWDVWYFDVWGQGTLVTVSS VL: DIQMTQSPSSLSASVGDRVTITCRPSENIYSYLAWYQQKPGNSPKLLVYNAKALAEGVPSRFSGSGSGTQFTLTISSLQPEDFATYYCQHHFGAPWTFGGGTKVEIKR", "最大MFI", 10100),
    ("阳性对照抗体P1 (antibody, human IgG1, kappa, V domains shown, Positive control anti-TIGIT antibody) VH: QVQLQESGPGLVKPSETLSLTCTVSGGSVSSGIYYWSWIRQPPGKGLEWIGYIYYSGSTNYNPSLKSRVTISVDTSKNQFSLKLSSVTAADTAVYYCARDYYVSGNYYNVDYYFFGVDVWGQGTTVTVSS VL: EIVLTQSPATLSLSPGERATLSCRASQSVSSYLAWYQQKPGQAPRLLIYDASNRATGIPARFSGSGSGTDFTLTISSLEPEDFAVYYCQQRSNWPPLFTFGPGTKVDIKR", "最大MFI", 13500),
    ("人源化抗TIGIT抗体A2 (antibody, human IgG1, kappa, V domains shown, Humanized) VH: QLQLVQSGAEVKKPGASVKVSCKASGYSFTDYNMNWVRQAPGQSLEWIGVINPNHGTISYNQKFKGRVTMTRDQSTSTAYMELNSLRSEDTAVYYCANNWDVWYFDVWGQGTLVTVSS VL: DIQMTQSPSSLSASVGDRVTITCRPSENIYSYLAWYQQKPGKAPKLLVYNAKALAEGVPSRFSGSGSGTDFTLTISSLQPEDFATYYCQHHFGAPWTFGQGTKVEIKR", "最大MFI", 10600),
    ("嵌合抗TIGIT抗体A0 (antibody, human IgG1, kappa, V domains shown, also called B011-A-142E4C5) VH: ELQLQQSGPELVKPGASVKISCKASGYSFTDYNMNWVKQSNGKSLEWIGVINPNHGTISYNQKFKGKATLTVDQSSSTAYMQLNSLTSEDSAVYYCANNWDVWYFDVWGTGTTVTVSS VL: DIQMTQSPASLSASVGETVTITCRPSENIYSYLAWYRQKQGNSPQLLVYNAKALAEGVPSRFSGSGSGTQFSLKINSLQPEDFGSYYCQHHFGAPWTFGGGTKLEIKR", "最大MFI", 9890),
]

Hey, just so you know, these numbers are from patent CN114907476A.
